property-measured: melting point

Below, each entry is followed by its recorded melting point result.
CCOc1ccccc1CNC(=O)[C@@H]1CCCN(c2cccc3c2C(=O)N(Cc2ccncc2)C3=O)C1 : 194 to 195 °C
CS(=O)(=O)c1ccccc1CNC(=O)[C@@H]1CCCN(c2cccc3c2C(=O)N(Cc2ccncc2)C3=O)C1 : 101 to 102 °C
O=C(NCc1cccs1)[C@@H]1CCCN(c2cccc3c2C(=O)N(Cc2ccncc2)C3=O)C1 : 193 to 194 °C
COCC(C)N1Cc2c(NC(=O)Cc3ccc(F)c(C(F)(F)F)c3)cccc2C1=O (stereo not shown) : 151 to 152 °C
O=C(NCC1COCCO1)[C@@H]1CCCN(c2cccc3c2C(=O)N(Cc2ccncc2)C3=O)C1 (stereo partly shown) : 186 to 187 °C

Req: Returns the measured melting point for the input molecule. Input: O=C(NCc1ccccc1O)[C@@H]1CCCN(c2cccc3c2C(=O)N(Cc2ccncc2)C3=O)C1
Resp: 181 to 182 °C

Req: Returns the measured melting point for the input molecule. Input: O=C(NCc1ccccc1F)[C@@H]1CCCN(c2cccc3c2C(=O)N(Cc2ccncc2)C3=O)C1
Resp: 196 to 197 °C

* * *

property-measured: melting point

O=C(NCc1ccccc1OC(F)(F)F)[C@@H]1CCCN(c2cccc3c2C(=O)N(Cc2ccncc2)C3=O)C1 [Compound I-7] : 197 to 198 °C
COC[C@@H](C)N1Cc2c(ccc(Cl)c2NC(=O)Cc2ccc(F)c(C(F)(F)F)c2)C1=O [Compound I-21] : 131 to 132 °C
O=C(NCC1CCCCC1)[C@@H]1CCCN(c2cccc3c2C(=O)N(Cc2ccncc2)C3=O)C1 [Compound I-15] : 172 to 173 °C

Req: Returns the measured melting point for the input molecule. Input: COc1cccc(CNC(=O)[C@@H]2CCCN(c3cccc4c3C(=O)N(Cc3ccncc3)C4=O)C2)c1OC [Compound I-10]
Resp: 199 to 200 °C

* * *

# target: hP2X7 (Homo sapiens)
# Construct: 1321N1 cells stably expressing the full length human P2X7 gene (1321N1-hP2X7); expressed in transfected cells
# Sequence (Q99572 whole entry): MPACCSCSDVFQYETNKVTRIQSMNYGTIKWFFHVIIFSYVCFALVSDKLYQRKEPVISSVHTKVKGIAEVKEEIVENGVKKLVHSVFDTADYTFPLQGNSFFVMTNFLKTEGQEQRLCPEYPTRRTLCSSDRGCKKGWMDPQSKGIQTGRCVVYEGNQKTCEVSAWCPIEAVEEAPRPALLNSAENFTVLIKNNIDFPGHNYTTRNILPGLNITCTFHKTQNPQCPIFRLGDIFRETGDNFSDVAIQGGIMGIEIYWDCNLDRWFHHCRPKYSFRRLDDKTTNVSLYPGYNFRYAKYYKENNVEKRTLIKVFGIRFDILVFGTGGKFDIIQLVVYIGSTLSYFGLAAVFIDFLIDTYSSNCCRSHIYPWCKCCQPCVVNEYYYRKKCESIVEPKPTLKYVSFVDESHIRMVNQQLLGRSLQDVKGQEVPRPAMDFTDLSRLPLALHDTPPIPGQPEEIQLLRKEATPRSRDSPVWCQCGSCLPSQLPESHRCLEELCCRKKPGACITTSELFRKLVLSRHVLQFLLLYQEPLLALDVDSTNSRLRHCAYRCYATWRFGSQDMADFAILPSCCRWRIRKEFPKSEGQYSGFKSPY
# experiment: Intracellular Calcium Flux (FLIPR) Assay
# Format: cell-based
# run-parameters: 1321N1 cells stably expressing human P2X7; agonist 100 μM BzATP; 20 min equilibration with antagonist; read-out: FLIPR pIC50 hP2X7-1321n1 (converted)
# Experimental: Stock solutions of compounds were prepared from powders as a 10 mM DMSO stock solution. These solutions were stored at RT during the two week period of these experiments to prevent freeze-thaw of the DMSO stocks. The DMSO stocks were added to the appropriate assay buffer at a concentration of 10 μM, and then diluted serially to the final concentrations that were tested. No observable precipitate was formed at any time during this process. […]
property-measured: IC50
Please answer in the form of a number followed by its unit of measurement.

Below, each entry is followed by its recorded IC50 result.
COc1cccc(CNC(=O)[C@@H]2CCCN(c3cccc4c3C(=O)N(Cc3ccncc3)C4=O)C2)c1OC : 182 nM
CS(=O)(=O)c1ccccc1CNC(=O)[C@@H]1CCCN(c2cccc3c2C(=O)N(Cc2ccncc2)C3=O)C1 : 204 nM
COc1ccccc1CNC(=O)[C@H]1CCCN(c2cccc3c2C(=O)N(Cc2ccncc2)C3=O)C1 : 741 nM
CCOc1ccccc1CNC(=O)[C@@H]1CCCN(c2cccc3c2C(=O)N(Cc2ccncc2)C3=O)C1 : 955 nM
C[C@H](CO)N1Cc2c(NC(=O)CC34CC5CC(CC(C5)C3)C4)c(Cl)cc(Cl)c2C1=O [Compound I-18b] : 537 nM
COc1ccccc1CNC(=O)[C@@H]1CCCN(c2cccc3c2C(=O)N(CC2CCOCC2)C3=O)C1 : 355 nM

With those in mind, consider the next molecule.
Req: Returns the measured IC50 for the input molecule. Input: O=C(NCC12CC3CC(CC(C3)C1)C2)[C@@H]1CCCN(c2cccc3c2C(=O)N(Cc2ccncc2)C3=O)C1
Resp: 107 nM

Source of measurements: patent US20120157494A1
